Just for reference, patent US20110098217A1 is where these values come from.

# target-entity: T1, human glucagon receptor (human, UniProt P47871 26-477)
# T1 construct: whole, on cells; cAMP assay: transfected HEK293 cells
# T1 sequence (P47871 26-477): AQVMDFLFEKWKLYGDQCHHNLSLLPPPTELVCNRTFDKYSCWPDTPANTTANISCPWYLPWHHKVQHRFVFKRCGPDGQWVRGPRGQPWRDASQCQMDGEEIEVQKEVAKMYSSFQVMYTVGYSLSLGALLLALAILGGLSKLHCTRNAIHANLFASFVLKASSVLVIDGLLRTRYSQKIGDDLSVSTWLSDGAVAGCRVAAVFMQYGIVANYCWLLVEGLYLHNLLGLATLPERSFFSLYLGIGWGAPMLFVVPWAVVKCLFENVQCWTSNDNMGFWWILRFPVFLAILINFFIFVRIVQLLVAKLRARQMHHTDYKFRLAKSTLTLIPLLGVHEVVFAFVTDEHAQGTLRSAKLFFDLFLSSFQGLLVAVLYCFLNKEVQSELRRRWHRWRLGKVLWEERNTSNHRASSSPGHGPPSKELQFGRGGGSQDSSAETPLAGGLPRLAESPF
# protocol-text: SPA competition vs 125I-glucagon, receptor membranes
Square brackets hold non-standard residues; d marks the D form. Ends that are not written are not given here. Abu(4-SO3H) = N[C@@H](CCS(=O)(=O)O)C(=O)O
Reported IC50 is given for each of the following binders.
Write the value in nM as a bare number.

binder="SQGTFTS[Abu(4-SO3H)]YSKYLDSRRAQDFVQWLMNT-NH2 [[hCys^9(SO3H)]Glucagon(aa2-29)-NH2]" readout=IC50 numeric_readout=13.2

Now look at this entry.
I'd like to know its IC50. The binder in question is FTS[Abu(4-SO3H)]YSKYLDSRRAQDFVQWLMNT-NH2 (also called [hCys(SO3)9]Glucagon(aa6-29)-NH2) [[hCys^9(SO3H)]Glucagon(aa6-29)-NH2]
59.1
